# measurementProtocol: Acute toxicity in mice
# testContext: mouse, in vivo, po, dose administered 1000 mg/kg/p.o.
measuredAttribute: mortality (%)
Could you give me the number in %? Just the number is fine.

Ask | Can you look up the measured mortality of CC(C)NC(=O)OCC1CN(c2cccc(C(F)(F)F)c2)C(=O)O1 (stereo not shown) for me?
Reply | 0

----------
# measurementProtocol: Acute toxicity in mice
# testContext: mouse, in vivo, po, dose administered 2000 mg/kg/p.o.
measuredAttribute: mortality (%)
Could you give me the number in %? Just the number is fine.

Ask | Can you look up the measured mortality of CNC(=O)OCC1CN(c2cccc(C(F)(F)F)c2)C(=O)O1 (stereo not shown) [compound 740704] for me?
Reply | 0

----------
What LD50 was measured for each of the following?
# measurementProtocol: Acute toxicity in mice
# testContext: mouse, in vivo, po, acute toxicity, read-out: 50 DL

Ask | Can you look up the measured LD50 of O=C1OC(CO)CN1c1ccc([N+](=O)[O-])cc1 (stereo not shown) for me?
Reply | > 1000 mg/kg

Ask | Can you look up the measured LD50 of CCCCOc1ccc(N2CC(CO)OC2=O)cc1 (stereo not shown) for me?
Reply | > 2000 mg/kg

Ask | Can you look up the measured LD50 of Cc1cccc(N2CC(CO)OC2=O)c1 (stereo not shown) [TOLOXATONE, reference compound] for me?
Reply | 1850 mg/kg

Ask | Can you look up the measured LD50 of CCOc1ccc(N2CC(CO)OC2=O)cc1 (stereo not shown) for me?
Reply | > 2000 mg/kg

Ask | Can you look up the measured LD50 of CSc1ccc(N2CC(CO)OC2=O)cc1 (stereo not shown) for me?
Reply | > 2000 mg/kg

Ask | Can you look up the measured LD50 of N#Cc1ccc(N2CC(CO)OC2=O)cc1 (stereo not shown) for me?
Reply | 1050 mg/kg

Ask | Can you look up the measured LD50 of O=C1OC(CO)CN1c1ccc(OCc2ccccc2)cc1 (stereo not shown) for me?
Reply | > 2000 mg/kg
